protocol_text: chemical genetic growth profiling, strain panel (AID 1159580);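 note: tested at 20 µM; growth read once vehicle control cultures reached saturation at 30 °C; 1 = growth at the plate median or of vehicle wells; lower values mean less growth of the strain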
run_conditions: S. cerevisiae deletion strains, growth OD, locus YDR388W, hits give low values
Hit rate of the full screen: of about 5,500 compounds, about 2,000 (36%) were called active. Not shown: some 18% with an inconclusive outcome. The list shows a part of the results.
reported_property: normalized growth
The answer should be a number; do not append a unit.

Here are 6 molecules together with their reported answers.
molecule	normalized growth
CC1(C)C(=O)C=C[C@@]2(C)C1=C(O)C(=O)[C@]1(C)C2CC[C@@]2(C)[C@H](c3ccoc3)C[C@H]3O[C@]321 (stereo not given in full)	0.982
Nc1ccc(C(=O)NCC(=O)O)cc1	1
CC1(C)C(=O)C=CC2(C)C3CCC4(C)C(c5ccoc5)CC5OC54C3C(O)CC12 (stereo not given)	1.02
CC(=O)O[C@@H]1C[C@@]2(C)[C@H](c3ccoc3)C[C@H]3O[C@]32[C@]2(C)C(=O)C(O)=C3C(C)(C)C(=O)C=C[C@]3(C)C12 (stereo not given in full)	0.951
CC1(C)C(O)CC(O)C2(C)C1CC(=O)C1(C)C2CCC2(C)C(C(=O)O)OC(=O)C3OC321 (stereo not given)	1
COc1ccccc1OCCNCC(O)COc1cccc2[nH]c3ccccc3c12 (stereo not given)	1.01

QUERY: Tell me the measured normalized growth of "Oc1c(Cl)cc(Cl)c2cccnc12" , please.
RESULT: 0.0609

QUERY: Tell me the measured normalized growth of "Oc1c(Br)cc(Br)c2cccnc12" , please.
RESULT: 0.0637

QUERY: Tell me the measured normalized growth of "Cc1ccsc1/C=C/C1=NCCCN1C" , please.
RESULT: 0.98

QUERY: Tell me the measured normalized growth of CC1(C)C(O)CC(O)C2(C)C1CC(O)C1(C)C2CCC2(C)C(c3ccoc3)CC3OC321 (stereo not given) , please.
RESULT: 1.01

Just for reference, PubChem BioAssay AID1159580 is where these values come from.
